Where these numbers come from: patent US12528801B2

# System: trained group of panelists
# EXPERIMENT: Sensory studies in aqueous solution (trained panel, mouth swill)
# Format: in vivo, human
# ASSAY CONTEXT: 10 ppm in aqueous solution; 20 mL swilled in the mouth for 60 seconds; panel-averaged cooling score, scale 0 to 10
ENDPOINT NAME: Max. cooling

COMPOUND: CSC(C)C(=O)N1CCCCC1c1ncc(-c2ccc(C)cc2)[nH]1 (stereo not drawn)
ENDPOINT NAME: Max. cooling
RESULT: S (S = Strong)
--
COMPOUND: CSC(C)C(=O)N1CCCCC1c1ncc(-c2ccc(C)s2)[nH]1 (stereo not drawn)
ENDPOINT NAME: Max. cooling
RESULT: S (S = Strong)
--
COMPOUND: CCSC(C)C(=O)N1CCCCC1c1ncc(-c2ccc(C)cc2)[nH]1 (stereo not drawn)
ENDPOINT NAME: Max. cooling
RESULT: M (M = medium)
--
COMPOUND: CS[C@H](C)C(=O)N1CCCC[C@@H]1c1ncc(-c2ccc(C)cc2)[nH]1
ENDPOINT NAME: Max. cooling
RESULT: S (S = Strong)
--
COMPOUND: CSC(C)C(=O)N1CCCCC1c1ncc(-c2ccccc2)[nH]1 (stereo not drawn)
ENDPOINT NAME: Max. cooling
RESULT: M (M = medium)
--
COMPOUND: CCC(C)C(=O)N1CCCCC1c1ncc(-c2ccc(C)cc2)[nH]1 (stereo not drawn)
ENDPOINT NAME: Max. cooling
RESULT: S (S = Strong)
--
COMPOUND: C=CC(C)C(=O)N1CCCCC1c1ncc(-c2ccc(C)cc2)[nH]1 (stereo not drawn)
ENDPOINT NAME: Max. cooling
RESULT: S (S = Strong)
--
COMPOUND: CSC(C)C(=O)N1CCCCC1c1ncc(-c2ccc(C(F)(F)F)cc2)[nH]1 (stereo not drawn)
ENDPOINT NAME: Max. cooling
RESULT: M (M = medium)
--
COMPOUND: CC[C@H](C)C(=O)N1CCCCC1c1ncc(-c2ccc(C)cc2)[nH]1 (stereo partly drawn)
ENDPOINT NAME: Max. cooling
RESULT: S (S = Strong)
